Target: Scl-70 (UniProt P11387)
Sequence (P11387 2-765 limits assumed): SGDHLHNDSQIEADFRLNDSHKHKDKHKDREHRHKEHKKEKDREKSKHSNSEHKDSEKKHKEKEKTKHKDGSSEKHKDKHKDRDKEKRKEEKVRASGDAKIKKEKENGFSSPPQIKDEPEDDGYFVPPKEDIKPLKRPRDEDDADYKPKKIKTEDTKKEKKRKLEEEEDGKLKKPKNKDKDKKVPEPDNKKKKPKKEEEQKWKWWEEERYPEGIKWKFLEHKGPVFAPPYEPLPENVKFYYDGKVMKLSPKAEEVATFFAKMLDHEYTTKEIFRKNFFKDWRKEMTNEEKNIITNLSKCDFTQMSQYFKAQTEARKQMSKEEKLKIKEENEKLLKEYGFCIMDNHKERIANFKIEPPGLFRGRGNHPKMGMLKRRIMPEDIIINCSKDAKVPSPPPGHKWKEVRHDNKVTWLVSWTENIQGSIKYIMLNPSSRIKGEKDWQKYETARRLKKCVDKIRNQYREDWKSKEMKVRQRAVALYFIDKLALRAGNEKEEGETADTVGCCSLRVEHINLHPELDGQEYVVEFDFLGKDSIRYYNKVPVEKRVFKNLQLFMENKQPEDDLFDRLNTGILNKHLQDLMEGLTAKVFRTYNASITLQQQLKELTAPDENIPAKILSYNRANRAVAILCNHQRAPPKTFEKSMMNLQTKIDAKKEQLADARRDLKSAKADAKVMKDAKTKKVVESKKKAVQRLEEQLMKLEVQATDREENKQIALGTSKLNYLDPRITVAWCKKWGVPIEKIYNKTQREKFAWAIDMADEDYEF
Test: AtheNA, Ab 6.25 ug/ml
measurement type: Athena reading (relative luminescence units)

{"columns": ["binder", "reading"],
 "data": [
  ["CH236_4A/293i (antibody, from a related filing, V domains shown) VH: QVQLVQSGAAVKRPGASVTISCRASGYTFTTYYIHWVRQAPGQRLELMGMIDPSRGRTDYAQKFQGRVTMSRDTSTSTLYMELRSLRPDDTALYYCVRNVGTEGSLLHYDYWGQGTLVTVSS VL: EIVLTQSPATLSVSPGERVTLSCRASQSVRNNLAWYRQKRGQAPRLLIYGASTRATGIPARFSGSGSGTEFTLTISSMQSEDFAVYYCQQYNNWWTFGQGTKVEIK", 31],
  ["CH241 (antibody, from a related filing, V domains shown) VH: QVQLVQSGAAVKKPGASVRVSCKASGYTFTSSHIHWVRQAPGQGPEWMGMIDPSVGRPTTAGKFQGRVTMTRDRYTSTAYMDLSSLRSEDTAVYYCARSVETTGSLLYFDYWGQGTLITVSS VL: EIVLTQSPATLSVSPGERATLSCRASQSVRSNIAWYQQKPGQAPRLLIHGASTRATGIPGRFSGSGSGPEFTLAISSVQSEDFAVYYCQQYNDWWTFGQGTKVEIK", 1],
  ["CH240_4A/293i (antibody, from a related filing, V domains shown) VH: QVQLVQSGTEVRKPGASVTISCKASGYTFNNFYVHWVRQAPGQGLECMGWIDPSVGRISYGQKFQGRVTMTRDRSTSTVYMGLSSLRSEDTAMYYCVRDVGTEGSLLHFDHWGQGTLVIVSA VL: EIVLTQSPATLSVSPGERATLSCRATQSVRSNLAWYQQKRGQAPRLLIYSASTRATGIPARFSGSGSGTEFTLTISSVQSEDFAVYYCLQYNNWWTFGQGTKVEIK", 3],
  ["CH235_4A (antibody, from a related filing, V domains shown) VH: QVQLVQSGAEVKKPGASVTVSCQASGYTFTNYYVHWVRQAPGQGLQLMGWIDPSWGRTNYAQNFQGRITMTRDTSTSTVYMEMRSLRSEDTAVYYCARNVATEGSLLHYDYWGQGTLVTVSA VL: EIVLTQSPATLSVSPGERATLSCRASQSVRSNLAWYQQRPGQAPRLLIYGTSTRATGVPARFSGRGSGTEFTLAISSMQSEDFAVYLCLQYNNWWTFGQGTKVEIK", 2]
]}
